Ref: paper PMC4819177

Test system: HeLa cells
Assay type: cell-based, human
measurement setup: MTT, 24 h exposure; average error about ±2 μM
Square brackets hold non-standard residues; d marks the D form. Peptide text beside a SMILES is read from it. * marks the point of attachment. TOAC = CC1(C)CC(N)(C(=O)O)CC(C)(C)N1[O]; Leu(ol) = CC(C)C[C@H](N)CO; Octanoyl = CCCCCCCC(=O)*; Aib = CC(C)(N)C(=O)O
readout label: pEC50
Answer as the number alone; pEC50 is minus log10 of concentration in mol/L.

Here is how some molecules turned out for pEC50.
{"columns": ["molecule", "pEC50"],
 "data": [
  ["CCCCCCCC(=O)NC(C)(C)C(=O)NCC(=O)N[C@@H](CC(C)C)C(=O)NC(C)(C)C(=O)NCC(=O)N[C@@H](CCCCN)C(=O)N[C@@H](CC(C)C)C(=O)NC(C)(C)C(=O)NCC(=O)N[C@H](C(=O)N[C@H](CO)CC(C)C)[C@@H](C)CC [[Lys^6] TG, Oct-UGLUGKLUGI-Lol]", 5.70],
  ["CCCCCCCC(=O)NC1(C(=O)NCC(=O)N[C@@H](CC(C)C)C(=O)NC(C)(C)C(=O)NCC(=O)NCC(=O)N[C@@H](CC(C)C)C(=O)NC(C)(C)C(=O)NCC(=O)N[C@H](C(=O)N[C@H](CO)CC(C)C)[C@@H](C)CC)CC(C)(C)N([O])C(C)(C)C1 [[TOAC^1] TG, Oct-XGLUGGLUGI-Lol] (Octanoyl-[TOAC]GL[Aib]GGL[Aib]GI[Leu(ol)])", 5.52]
]}

The molecule CCCCCCCC(=O)NC1(C(=O)NCC(=O)N[C@@H](CC(C)C)C(=O)NC(C)(C)C(=O)N[C@@H](CCCCN)C(=O)N[C@@H](CCCCN)C(=O)N[C@@H](CC(C)C)C(=O)NC(C)(C)C(=O)NCC(=O)N[C@H](C(=O)N[C@H](CO)CC(C)C)[C@@H](C)CC)CC(C)(C)N([O])C(C)(C)C1 [[TOAC^1, Lys^5,6] TG, Oct-XGLUKKLUGI-Lol] , tested on HeLa cells, showed pEC50 of 5.22

The molecule CCCCCCCC(=O)NC1(C(=O)NCC(=O)N[C@@H](CC(C)C)C(=O)NC(C)(C)C(=O)NCC(=O)NCC(=O)N[C@@H](CC(C)C)C(=O)NC(C)(C)C(=O)N[C@@H](CCCNC(=N)N)C(=O)N[C@H](C(=O)N[C@H](CO)CC(C)C)[C@@H](C)CC)CC(C)(C)N([O])C(C)(C)C1 [[TOAC^1, Arg^9] TG, Oct-XGLUGGLURI-Lol] (Octanoyl-[TOAC]GL[Aib]GGL[Aib]RI[Leu(ol)]) , tested on HeLa cells, showed pEC50 of 5.30

The molecule CCCCCCCC(=O)NC(C)(C)C(=O)N[C@@H](CCCNC(=N)N)C(=O)N[C@@H](CC(C)C)C(=O)NC(C)(C)C(=O)NCC(=O)NCC(=O)N[C@@H](CC(C)C)C(=O)NC(C)(C)C(=O)NCC(=O)N[C@H](C(=O)N[C@H](CO)CC(C)C)[C@@H](C)CC [[Arg^2] TG, Oct-URLUGGLUGI-Lol] (Octanoyl-[Aib]RL[Aib]GGL[Aib]GI[Leu(ol)]) , tested on HeLa cells, showed pEC50 of 5.40

The molecule CCCCCCCC(=O)NC1(C(=O)NCC(=O)N[C@@H](CC(C)C)C(=O)NC(C)(C)C(=O)NCC(=O)N[C@@H](CCCCN)C(=O)N[C@@H](CC(C)C)C(=O)NC(C)(C)C(=O)NCC(=O)N[C@H](C(=O)N[C@H](CO)CC(C)C)[C@@H](C)CC)CC(C)(C)N([O])C(C)(C)C1 [[TOAC^1, Lys^6] TG, Oct-XGLUGKLUGI-Lol] , tested on HeLa cells, showed pEC50 of 5.52

The molecule CCCCCCCC(=O)NC(C)(C)C(=O)NCC(=O)N[C@@H](CC(C)C)C(=O)NC(C)(C)C(=O)NCC(=O)NCC(=O)N[C@@H](CC(C)C)C(=O)NC(C)(C)C(=O)NCC(=O)N[C@H](C(=O)N[C@H](CO)CC(C)C)[C@@H](C)CC [TG, reference compound] (Octanoyl-[Aib]GL[Aib]GGL[Aib]GI[Leu(ol)]) , tested on HeLa cells, showed pEC50 of 5.10

The molecule CCCCCCCC(=O)NC1(C(=O)N[C@@H](CCCNC(=N)N)C(=O)N[C@@H](CC(C)C)C(=O)NC(C)(C)C(=O)NCC(=O)NCC(=O)N[C@@H](CC(C)C)C(=O)NC(C)(C)C(=O)NCC(=O)N[C@H](C(=O)N[C@H](CO)CC(C)C)[C@@H](C)CC)CC(C)(C)N([O])C(C)(C)C1 [[TOAC^1, Arg^2] TG, Oct-XRLUGGLUGI-Lol] (Octanoyl-[TOAC]RL[Aib]GGL[Aib]GI[Leu(ol)]) , tested on HeLa cells, showed pEC50 of 5.05

The molecule CCCCCCCC(=O)NC(C)(C)C(=O)NCC(=O)N[C@@H](CC(C)C)C(=O)NC(C)(C)C(=O)N[C@@H](CCCCN)C(=O)N[C@@H](CCCCN)C(=O)N[C@@H](CC(C)C)C(=O)NC(C)(C)C(=O)NCC(=O)N[C@H](C(=O)N[C@H](CO)CC(C)C)[C@@H](C)CC [[Lys^5,6] TG, Oct-UGLUKKLUGI-Lol] , tested on HeLa cells, showed pEC50 of 5.00
